Exercise: state measured log10 of Ki for each of the compounds provided.
# study_system: Carbonic anhydrase 4 (Bos taurus)
# Sequence (Q95323 whole entry): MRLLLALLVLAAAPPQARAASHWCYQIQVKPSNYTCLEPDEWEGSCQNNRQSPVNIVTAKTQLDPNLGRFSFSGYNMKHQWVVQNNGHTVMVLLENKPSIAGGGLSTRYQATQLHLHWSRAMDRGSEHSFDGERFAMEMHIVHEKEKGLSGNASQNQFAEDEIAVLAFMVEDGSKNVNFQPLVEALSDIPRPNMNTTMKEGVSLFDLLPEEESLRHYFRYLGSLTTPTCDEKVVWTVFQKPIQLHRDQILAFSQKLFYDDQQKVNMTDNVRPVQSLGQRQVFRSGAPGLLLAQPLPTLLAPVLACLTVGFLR
// do not treat as linear: log10 of Ki, unit µM

CC1(C)O[C@H]2[C@@H](O1)[C@@H](C(=O)NNS(N)(=O)=O)O[C@@H]1OC(C)(C)O[C@@H]12: 1.48
CC1(C)OC[C@@H]2O[C@@]3(C(=O)NS(N)(=O)=O)OC(C)(C)O[C@H]3[C@@H]2O1: -0.37
CC1(C)O[C@@H]2O[C@@H](COS(N)(=O)=O)[C@H]3OC(C)(C)O[C@H]3[C@@H]2O1: 1.43
CC1(C)OC[C@@H]2O[C@@]3(C(=O)NNS(N)(=O)=O)OC(C)(C)O[C@H]3[C@@H]2O1: 1.52

Turning now to a further record.
Task: GET log10 of Ki | system: Carbonic anhydrase 4 (Bos taurus) | item: CC1(C)O[C@@H]2O[C@@H](C(=O)NS(N)(=O)=O)[C@H]3OC(C)(C)O[C@H]3[C@@H]2O1
Result: 1.66
